Entry source: patent US12509460B2

# System: MDR1 (P-gp)
# experiment-summary: Blood-brain-barrier (BBB) penetration potential via MDCK-MDR1 permeability assay
# assay-setup: dog, MDCK-MDR1, pH 7.4, MDCK-MDR1: Papp A-B, A-B direction
endpoint-name: Papp A→B at 120 min, 5 μM (×10⁻⁶ cm/s)
Entry rule: numbers only, all in ×10⁻⁶ cm/s.

Consider the worked cases shown below.
[[record]]
compound = "CN(c1ccc(-c2cc3ncn(CC(F)(F)F)c(=O)c3cc2O)nn1)[C@@H]1C[C@H]2CC(F)(F)[C@@H](C1)N2 [Compound 59A]"
endpoint_name = "Papp A→B at 120 min, 5 μM"
measured = 2.11

[[record]]
compound = "CN(c1ccc(-c2ccc(-n3ccnc3)cc2O)nn1)[C@H]1C[C@@H]2CCC[C@@H](N2)[C@H]1F [Compound 11B]"
endpoint_name = "Papp A→B at 120 min, 5 μM"
measured = 2.4


Ask: Consider the compound shown here: CN(c1ccc(-c2ccc(-c3cnn(C(F)F)c3)cc2O)nn1)[C@@H]1C[C@H]2CC[C@H](N2)[C@@H]1F [Compound 20A] What is its recorded Papp A→B at 120 min, 5 μM?
Result: 4.68

###

# Tested on: MDR1 (P-gp)
# experiment-summary: in vitro
# assay-setup: dog, MDCK-MDR1, pH 7.4
endpoint-name: Papp A→B at 120 min, 5 μM (×10⁻⁶ cm/s)
Entry rule: numbers only, all in ×10⁻⁶ cm/s.

[[record]]
molecule = "CN(c1ccc(-c2cc3cc[nH]c(=O)c3s2)nn1)[C@H]1C[C@@H]2CC[C@@H](N2)[C@H]1F (single isomer, unassigned) [Compound 66B]"
unit_name = "×10⁻⁶ cm/s"
measured = 0.07

[[record]]
molecule = "CN1[C@H]2CC[C@@H]1[C@@H](F)[C@@H](N(c1ccc(-c3cc4ncn(CC(F)(F)F)c(=O)c4cc3O)nn1)C1CC1)C2 (single isomer, unassigned) [Compound 111B]"
unit_name = "×10⁻⁶ cm/s"
measured = 0.66


Ask: For the record CN(c1ccc(-c2cc3ncn(CC(F)(F)F)c(=O)c3cc2O)nn1)[C@H]1C[C@@H]2CC(F)(F)[C@H](C1)N2C (single isomer, unassigned) [Compound 110B] , what value of Papp A→B at 120 min, 5 μM is listed for MDR1 (P-gp)?
Result: 11.7

Ask: For the record CCc1cn(-c2ccc(-c3ccc(N(C)[C@@H]4C[C@H]5CC(F)(F)[C@@H](C4)N5)nn3)c(O)c2)nn1 (single isomer, unassigned) [Compound 64A] , what value of Papp A→B at 120 min, 5 μM is listed for MDR1 (P-gp)?
Result: 7.18

Ask: For the record CNC(=O)c1ccc(-c2ccc(N(C)[C@@H]3C[C@H]4CC[C@H](N4)[C@@H]3F)nn2)c(O)c1 (single isomer, unassigned) [Compound 77A] , what value of Papp A→B at 120 min, 5 μM is listed for MDR1 (P-gp)?
Result: 0.29

Ask: For the record Cc1cc(=O)c2cc(O)c(-c3ccc(N(C)[C@@H]4C[C@H]5CC[C@@H]([C@@H]4F)N5C)nn3)cc2o1 [Compound 99A] , what value of Papp A→B at 120 min, 5 μM is listed for MDR1 (P-gp)?
Result: 2

Ask: For the record CC(=O)N(C)c1ccc(-c2ccc(N(C)[C@@H]3C[C@H]4CC[C@H](N4)[C@@H]3F)nn2)c(O)c1 [Compound 35A] , what value of Papp A→B at 120 min, 5 μM is listed for MDR1 (P-gp)?
Result: 0.21

###

# maps each entry to its Papp B→A at 120 min, 5 μM
# Tested on: MDR1 (P-gp)
# experiment-summary: Blood-brain-barrier (BBB) penetration potential via MDCK-MDR1 permeability assay
# assay-setup: dog, MDCK-MDR1, pH 7.4, MDCK-MDR1: Papp B-A, B-A direction
Entry rule: numbers only, all in ×10⁻⁶ cm/s.

Consider the worked cases shown below.
[[record]]
compound = "CN(c1ccc(-c2cc3ncn(CC(F)(F)F)c(=O)c3cc2O)nn1)[C@@H]1C[C@H]2CC(F)(F)[C@@H](C1)N2 [Compound 59A]"
unit_name = "×10⁻⁶ cm/s"
measured = 74

[[record]]
compound = "CN(c1ccc(-c2ccc(-n3nccn3)cc2O)nn1)[C@@H]1C[C@H]2CC[C@H](N2)[C@@H]1F [Compound 90A]"
unit_name = "×10⁻⁶ cm/s"
measured = 22.5

[[record]]
compound = "Cc1cc(=O)c2cc(O)c(-c3ccc(N(C)[C@H]4C[C@@H]5CC[C@@H](N5)[C@H]4F)nn3)cc2o1 [Compound 49B]"
unit_name = "×10⁻⁶ cm/s"
measured = 32.9

[[record]]
compound = "CN(c1ccc(-c2ccc(C3=CCCC3)cc2O)nn1)[C@@H]1C[C@H]2CC[C@H](N2)[C@@H]1F [Compound 34A]"
unit_name = "×10⁻⁶ cm/s"
measured = 1.05

[[record]]
compound = "CN(c1ccc(-c2ccc(-c3cnccn3)cc2O)nn1)[C@@H]1C[C@H]2CCC[C@H](N2)[C@@H]1F [Compound 24A]"
unit_name = "×10⁻⁶ cm/s"
measured = 61.3


Ask: Consider the compound shown here: CN(c1ccc(-c2cc3ncn(CC(F)(F)F)c(=O)c3cc2O)nn1)[C@@H]1C[C@H]2CC[C@H](N2)[C@@H]1F [Compound 81A] What is its recorded Papp B→A at 120 min, 5 μM?
Result: 51

###

# Tested on: MDR1-MDCK cell monolayers
# assay-setup: dog, MDCK-MDR1, 120 min, 5 μM, pH 7.4
endpoint-name: MDCK-MDR1: % Recov A-B (%)
Entry rule: numbers only, all in %.

Consider the worked cases shown below.
[[record]]
compound = "CN(c1ccc(-c2cc3occc(=O)c3cc2O)nn1)[C@H]1C[C@@H]2CC[C@H]([C@H]1F)N2C (single isomer, unassigned) [Compound 94B]"
study_target = "MDR1-MDCK cell monolayers"
unit_name = "%"
measured = 73

[[record]]
compound = "CN(c1ccc(-c2cc3oc(C(=O)N4CCC4)cc3cc2O)nn1)[C@@H]1C[C@H]2CC[C@@H]([C@@H]1F)N2C [Compound 107A]"
study_target = "MDR1-MDCK cell monolayers"
unit_name = "%"
measured = 80


Ask: For the record CN(c1ccc(-c2cnc(-c3cnn(C)c3)nc2O)nn1)[C@H]1C[C@@H]2CC[C@@H](N2)[C@H]1F (racemic) [Compound 122] , what value of MDCK-MDR1: % Recov A-B is listed for MDR1-MDCK cell monolayers?
Result: 86

Ask: For the record CN(c1ccc(-c2ccc(C3CC3)cc2O)nn1)[C@@H]1C[C@H]2CC[C@H](N2)[C@@H]1F (single isomer, unassigned) [Compound 31A] , what value of MDCK-MDR1: % Recov A-B is listed for MDR1-MDCK cell monolayers?
Result: 45

Ask: For the record CNC(=O)c1cc(O)c(-c2ccc(N(C)[C@@H]3C[C@H]4CC[C@H](N4)[C@@H]3F)nn2)cc1F [Compound 47A] , what value of MDCK-MDR1: % Recov A-B is listed for MDR1-MDCK cell monolayers?
Result: 98

Ask: For the record CNC(=O)c1cc(O)c(-c2ccc(N(C)[C@H]3C[C@@H]4CC[C@H]([C@H]3F)N4C)nn2)cc1F (single isomer, unassigned) [Compound 96B] , what value of MDCK-MDR1: % Recov A-B is listed for MDR1-MDCK cell monolayers?
Result: 92

###

# Test system: MDR1 (P-gp)
# experiment-summary: in vitro
# assay-setup: dog, MDCK-MDR1, pH 7.4
# maps each entry to its Papp A→B at 120 min, 5 μM
Provide the measurement as a number trailed by its unit.

[[record]]
compound = "CN(c1ccc(-c2cc3oc(C(=O)N4CCC4)cc3cc2O)nn1)[C@@H]1C[C@H]2CC[C@@H]([C@@H]1F)N2C [Compound 107A]"
study_target = "MDR1 (P-gp)"
endpoint_name = "Papp A→B at 120 min, 5 μM"
measured = "1.27 ×10⁻⁶ cm/s"


Ask: Consider the compound shown here: CC(=O)Nc1ccc(-c2ccc(N(C)[C@H]3C[C@@H]4CC[C@@H](N4)[C@H]3F)nn2)c(O)c1 (single isomer, unassigned) [Compound 32B] What is its recorded Papp A→B at 120 min, 5 μM?
Result: 0.27 ×10⁻⁶ cm/s

Ask: Consider the compound shown here: CN(c1ccc(-c2cc(C#N)c(F)cc2O)nn1)[C@@H]1C[C@H]2CC[C@H](N2)[C@@H]1F [Compound 72A] What is its recorded Papp A→B at 120 min, 5 μM?
Result: 11.6 ×10⁻⁶ cm/s

Ask: Consider the compound shown here: CN(c1ccc(-c2cc3cnccc3cc2O)nn1)[C@@H]1C[C@H]2CC[C@@H]([C@@H]1F)N2C [Compound 93A] What is its recorded Papp A→B at 120 min, 5 μM?
Result: 5.27 ×10⁻⁶ cm/s

Ask: Consider the compound shown here: CCc1cn(-c2ccc(-c3ccc(N(C)[C@H]4C[C@@H]5CC(F)(F)[C@H](C4)N5)nn3)c(O)c2)nn1 (single isomer, unassigned) [Compound 64B] What is its recorded Papp A→B at 120 min, 5 μM?
Result: 5.61 ×10⁻⁶ cm/s

Ask: Consider the compound shown here: CN1[C@@H]2CC[C@H]1[C@H](F)[C@H](N(c1ccc(-c3cc4ncn(CC(F)(F)F)c(=O)c4cc3O)nn1)C1CC1)C2 (single isomer, unassigned) [Compound 111A] What is its recorded Papp A→B at 120 min, 5 μM?
Result: 0.89 ×10⁻⁶ cm/s
